Measured Functional assay IL-8, listed per entry for reference.
Target: T1, CD134 expressed on the cell surface of HT1080_OX40 cells (human, UniProt P43489 29-277); note: test concentration or dose not given here
T1 sequence (looked up): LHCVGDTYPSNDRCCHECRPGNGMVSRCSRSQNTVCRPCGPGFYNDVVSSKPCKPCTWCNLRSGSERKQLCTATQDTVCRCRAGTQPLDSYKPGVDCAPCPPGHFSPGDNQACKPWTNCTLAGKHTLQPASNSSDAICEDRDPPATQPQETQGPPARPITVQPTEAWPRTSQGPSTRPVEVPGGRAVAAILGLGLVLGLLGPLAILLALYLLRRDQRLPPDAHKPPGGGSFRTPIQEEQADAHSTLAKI
Assay: cell-based or functional assay
// return numeric value only (unit: abs. corr., not printed)

// below: answered binders
BINDER	UNIT_TEXT	Functional assay IL-8
P018.S.11.A.B04 (antibody, V domains shown, V regions on human Ig constant parts; also called AB134_25) VH: QEQLEESGGDLVKPEGSLTLTCTASGFSFSSAYYMCWVRQAPGKGLEWIACIDAGSSGSTYYASWAKGRFTISKTSSTTVTLQMTSLTAADTATYFCARDGGSTTGYGWLDLWGQGTLVTVSS VL: AVVMTQTASPVSAAVGGTVTINCQASQSIGTNYLSWYQQKPGQPPKLLIYEASNLETGVPSRFKGSGSGTEYSLTISDLESADAATYYCLYSYYSSSSAYTFGGGTEVVVK	abs. corr.	-0.087
P018.S.12.A.D04 (antibody, V domains shown, V regions on human Ig constant parts; also called AB134_69) VH: QSVEESGGRLVTPGTPLTLTCTVSGIDLSSYAMGWVRQAPGKGLEYIGIISYDGSTYYASWAKGRFTISKTSTTVDLKITSPTTEDTATYFCARVDYGDYNFALWGQGTLVTVSS VL: DVVMTQTPASVSEVVGGTVTIKCQASESISNYLAWYQQKPGQPPKLLIYAASNLASGVPSRFSGSGSGTQFTLTISDLESADAATYYCQCTYYVSSYFAFSGGTEVVVK	abs. corr.	0.139

// moving on: another record for Functional assay IL-8
Exam item: // Functional assay IL-8 lookup, key: P018.S.11.A.E03 (antibody, V domains shown, V regions on human Ig constant parts; also called AB134_34) VH: QSVEESGGRLVTPGTPLTLTCTVSGFSLSSYAVSWVRQAPWKGLEWIGIISSGGNTYYASWATGRFTISKTSTTVDLKITSPTTEDTATYFCARGIHSYDDYLGYKLWGPGTLVTVSS VL: AIEMTQSPPSLSASVGETVRIRCLASEFLFNAVSWYQQKPEKPPTLLISGASNLESGVPPRFSGSGSGTDYTLTIGGVQAEDVAAYYCLGGYKRADLTFGPGTKVEIK
Marked response: 0.481
